Experiment: Particle size, PdI and zeta potential of mRNA-encapsulating LNPs by dynamic light scattering (Experimental Example 2)
Type: physicochemical
Conditions: mRNA-encapsulating LNP, cationic lipid:DOPC:Chol = 50:10:40 (molar ratio) + DMG-PEG2k about 1 mol; Polydispersity Index, dynamic light scattering
Experimental: An acidic buffer solution (total amount: 1080 µL) of nucleic acid was prepared by weighing 7.2 µg of mRNA solution (0.6 mg/mL) in a 5 mL tube and adding acidic malate buffer (20 mM, pH 3.0). […] The particle size, PdI (Polydispersity Index), and zeta potential of the mRNA-encapsulating LNP prepared by the method of the above-mentioned 1 were measured by a dynamic light scattering method (Zetasizer Nano; Malvern).
Listed here are compounds together with their documented PdI.

Below: 3 compounds and their reported PdI.
CCCCCC/C=C\COC(=O)CCCC(=O)Oc1ccc(CC(=O)OCCC2CCN(CCSSCCN3CCC(CCOC(=O)Cc4ccc(OC(=O)CCCC(=O)OC/C=C\CCCCCC)cc4)CC3)CC2)cc1	0.067
CCCCCCCC/C=C\CCCCCCCC(=O)Oc1ccc(CC(=O)OCCC2CCN(CCSSCCN3CCC(CCOC(=O)Cc4ccc(OC(=O)CCCCCCC/C=C\C[C@H](CCCCCC)OC(C)=O)cc4)CC3)CC2)cc1	0.070
CCCCCC[C@@H](C/C=C\CCCCCCCC(=O)Oc1ccc(CC(=O)OCCC2CCN(CCSSCCN3CCC(CCOC(=O)Cc4ccc(OC(=O)CCCC(=O)OC[C@H](COC(C)=O)OC(C)=O)cc4)CC3)CC2)cc1)OC(=O)CCCCC	0.061

Item CCCCCCC#CCCOC(=O)CCCC(=O)Oc1ccc(CC(=O)OCCC2CCN(CCSSCCN3CCC(CCOC(=O)Cc4ccc(OC(=O)CCCC(=O)Oc5c(C)c(C)c6c(c5C)CCC(C)(CCCC(C)CCCC(C)CCCC(C)C)O6)cc4)CC3)CC2)cc1 (stereo not shown) has what recorded PdI? 0.071

Then what about the compound CCCCCCC#CCCOC(=O)CCCC(=O)Oc1ccc(CC(=O)OCCC2CCN(CCSSCCN3CCC(CCOC(=O)Cc4ccc(OC(=O)CCCCCCCC(=O)OC(CCCCCCCC)CCCCCCCC)cc4)CC3)CC2)cc1 ? 0.063

Then what about the compound CCCCCCC#CCCOC(=O)CCCC(=O)Oc1ccc(CC(=O)OCCC2CCN(CCSSCCN3CCC(CCOC(=O)Cc4ccc(OC(=O)CCCCCCC/C=C\CCCCCCCC)cc4)CC3)CC2)cc1 ? 0.059

Then what about the compound CCCCCCCC/C=C\CCCCCCCC(=O)Oc1ccc(CC(=O)OCCC2CCN(CCSSCCN3CCC(CCOC(=O)Cc4ccc(OC(=O)CCCC(=O)OC[C@H](COC(=O)CCCCCCC)OC(=O)CCCCCCC)cc4)CC3)CC2)cc1 ? 0.112
